Property: Homo (%) (0.1 μM); scope: individual compounds
# tgt: 17β-HSD3 (Homo sapiens)
# Construct: expressed in transfected cells; host or cells: HEK-293 (homogenate)
# Sequence (P37058 1-310): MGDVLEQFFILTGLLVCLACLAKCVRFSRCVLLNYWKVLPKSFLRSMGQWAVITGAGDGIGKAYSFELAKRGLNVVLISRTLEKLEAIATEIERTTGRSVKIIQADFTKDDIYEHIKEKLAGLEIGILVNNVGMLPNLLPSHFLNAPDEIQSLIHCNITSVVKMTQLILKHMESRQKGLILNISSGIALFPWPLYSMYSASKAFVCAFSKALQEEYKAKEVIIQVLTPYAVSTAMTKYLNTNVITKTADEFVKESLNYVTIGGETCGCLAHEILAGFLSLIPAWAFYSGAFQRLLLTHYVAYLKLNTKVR
# test_method_notes: Inhibition of 17β-HSD3 in homogenated HEK-293 cells
# Format: biochemical
# condition_label: Table 3; 0.1 μM
quantity_name: Homo (%) (0.1 μM)

1. CC1CN(C(=O)C2CCCCC2)C(C)CN1C[C@@]1(O)CC[C@@]2(C)[C@@H](CC[C@@H]3[C@@H]2CC[C@]2(C)C(=O)CC[C@@H]32)C1 (stereo partly drawn) [Compound 13b] ... 90
2. CC1CN(C[C@@]2(O)CC[C@@]3(C)[C@@H](CC[C@@H]4[C@@H]3CC[C@]3(C)C(=O)CC[C@@H]43)C2)C(C)CN1Cc1cc(C(F)(F)F)cc(C(F)(F)F)c1 (stereo partly drawn) [Compound 11j] ... 74
3. C[C@]12CC[C@](O)(CN3CCN(C(=O)C4CCCCC4)CC3)C[C@@H]1CC[C@@H]1[C@@H]2CC[C@]2(C)C(=O)CC[C@@H]12 [Compound 12b] ... 75
4. C[C@]12CC[C@](O)(CN3CCN(Cc4cc(C(F)(F)F)ccc4C(F)(F)F)CC3)C[C@@H]1CC[C@@H]1[C@@H]2CC[C@]2(C)C(=O)CC[C@@H]12 [Compound 10h] ... 85
5. CC1CN(S(=O)(=O)c2ccccc2C(F)(F)F)C(C)CN1CC1(O)CCC2(C)C(CCC3C4CCC(=O)C4(C)CCC32)C1 (stereo not drawn) [Compound 15b] ... 92
6. C[C@]12CC[C@](O)(CN3CCN(Cc4ccc(C(F)(F)F)cc4C(F)(F)F)CC3)C[C@@H]1CC[C@@H]1[C@@H]2CC[C@]2(C)C(=O)CC[C@@H]12 [Compound 10i] ... 75

====

Property: inhibition at 0.1 µM; scope: individual compounds
# tgt: 17β-HSD3 (Homo sapiens)
# Construct: expressed in transfected cells; host or cells: HEK-293 (homogenate)
# Sequence (P37058 1-310): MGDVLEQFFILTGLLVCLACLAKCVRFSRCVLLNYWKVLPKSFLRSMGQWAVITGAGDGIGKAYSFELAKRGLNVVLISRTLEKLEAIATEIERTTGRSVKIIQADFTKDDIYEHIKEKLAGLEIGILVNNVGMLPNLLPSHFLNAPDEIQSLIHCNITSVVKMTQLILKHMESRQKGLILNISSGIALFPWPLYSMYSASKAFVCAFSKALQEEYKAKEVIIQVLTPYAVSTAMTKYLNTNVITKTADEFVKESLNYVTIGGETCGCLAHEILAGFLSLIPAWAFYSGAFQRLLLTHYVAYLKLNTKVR
# test_method_notes: Inhibition of 17β-HSD3 in homogenated HEK-293 cells
# Format: biochemical
# condition_label: Table 3; 0.1 μM; read-out: Homo (%) (0.1 μM)
quantity_name: inhibition at 0.1 µM (%)

1) C[C@]12CC[C@](O)(CN3CCN(C(=O)c4cccc(C(F)(F)F)c4)CC3)C[C@@H]1CC[C@@H]1[C@@H]2CC[C@]2(C)C(=O)CC[C@@H]12 [Compound 12d] ... 92
2) C[C@]12CC[C@](O)(CN3CCN(Cc4cccc(C(F)(F)F)c4)CC3)C[C@@H]1CC[C@@H]1[C@@H]2CC[C@]2(C)C(=O)CC[C@@H]12 [Compound 10a] ... 88
3) C[C@]12CC[C@](O)(CN3CCN(Cc4cccnc4)CC3)C[C@@H]1CC[C@@H]1[C@@H]2CC[C@]2(C)C(=O)CC[C@@H]12 [Compound 10g] ... 33
4) C[C@]12CC[C@](O)(CN3CCN(S(=O)(=O)c4cccc(C(F)(F)F)c4)CC3)C[C@@H]1CC[C@@H]1[C@@H]2CC[C@]2(C)C(=O)CC[C@@H]12 [Compound 14a] ... 82
5) COc1cccc(CN2CC(C)N(C[C@@]3(O)CC[C@@]4(C)[C@@H](CC[C@@H]5[C@@H]4CC[C@]4(C)C(=O)CC[C@@H]54)C3)CC2C)c1 (stereo partly drawn) [Compound 11f] ... 87
6) COc1cccc(CN2CCN(C[C@@]3(O)CC[C@@]4(C)[C@@H](CC[C@@H]5[C@@H]4CC[C@]4(C)C(=O)CC[C@@H]54)C3)CC2)c1 [Compound 10f] ... 83

====

# tgt: 17β-HSD3 (Homo sapiens, UniProt P37058)
# Construct: expressed in transfected cells; host or cells: HEK-293 (homogenate)
# Sequence (P37058 1-310): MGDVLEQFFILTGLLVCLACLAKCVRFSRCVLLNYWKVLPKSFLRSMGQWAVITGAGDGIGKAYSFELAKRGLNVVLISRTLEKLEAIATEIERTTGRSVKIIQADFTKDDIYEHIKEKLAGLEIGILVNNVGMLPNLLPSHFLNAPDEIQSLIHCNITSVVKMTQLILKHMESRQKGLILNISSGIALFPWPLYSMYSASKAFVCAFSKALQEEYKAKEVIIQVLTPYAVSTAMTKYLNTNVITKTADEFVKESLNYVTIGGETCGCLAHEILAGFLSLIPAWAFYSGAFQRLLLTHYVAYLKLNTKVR
# test_method_notes: Inhibition of 17β-HSD3 in intact HEK-293 cells
# Assay type: cell-based
# condition_label: HEK293, 1 h, read-out: Intact cells (%) (0.1 μM), Table 4; 0.1 μM
quantity_name: inhibition at 0.1 µM (%)

1) COc1ccc(CN2C[C@]3(CC[C@@]4(C)[C@@H](CC[C@@H]5[C@@H]4CC[C@]4(C)C(=O)CC[C@@H]54)C3)OC2=O)cc1 [Compound 17c] ... 43
2) C[C@]12CC[C@@]3(C[C@@H]1CC[C@@H]1[C@@H]2CC[C@]2(C)C(=O)CC[C@@H]12)CN(Cc1ccc(C(F)(F)F)cc1)C(=O)O3 [Compound 17d] ... 43
3) C[C@]12CC[C@@]3(C[C@@H]1CC[C@@H]1[C@@H]2CC[C@]2(C)C(=O)CC[C@@H]12)CN(Cc1ccc(C(F)(F)F)nc1)C(=O)O3 [Compound 17e] ... 36

====

# tgt: 17β-HSD3 (Homo sapiens, UniProt P37058)
# Construct: expressed in transfected cells; host or cells: HEK-293 (homogenate)
# test_method_notes: Inhibition of 17β-HSD3 in homogenated HEK-293 cells
# Type: biochemical
# condition_label: read-out: Homo (%) (0.01 μM), Table 4; 0.01 μM
Property: inhibition at 0.01 µM; scope: individual compounds
quantity_name: inhibition at 0.01 µM

1. C[C@]12CC[C@@]3(C[C@@H]1CC[C@@H]1[C@@H]2CC[C@]2(C)C(=O)CC[C@@H]12)CN(Cc1cccc(C(F)(F)F)c1)C(=O)O3 [Compound 17g] ... 16%
2. C[C@]12CC[C@@]3(C[C@@H]1CC[C@@H]1[C@@H]2CC[C@]2(C)C(=O)CC[C@@H]12)CN(CCC(CN1CCOCC1)OC(=O)CCC1CCCC1)C(=O)O3 (stereo partly drawn) [Compound 4, reference compound] ... 2%
3. C[C@]12CC[C@@]3(C[C@@H]1CC[C@@H]1[C@@H]2CC[C@]2(C)C(=O)CC[C@@H]12)CN(C1CCCCC1)C(=O)O3 [Compound 17i] ... 13%

====

# tgt: 17β-HSD3 (Homo sapiens)
# Construct: expressed in transfected cells; host or cells: HEK-293 (homogenate)
# test_method_notes: Inhibition of 17β-HSD3 in homogenated HEK-293 cells
# Type: biochemical
# condition_label: read-out: Homo (%) (0.1 μM), Table 4; 0.1 μM
quantity_name: inhibition at 0.1 µM (%)

1) C[C@]12CC[C@@]3(C[C@@H]1CC[C@@H]1[C@@H]2CC[C@]2(C)C(=O)CC[C@@H]12)CN(Cc1ccccc1C(F)(F)F)C(=O)O3 [Compound 17f] ... 81
2) C[C@]12CC[C@@]3(C[C@@H]1CC[C@@H]1[C@@H]2CC[C@]2(C)C(=O)CC[C@@H]12)CN(Cc1ccccc1)C(=O)O3 [Compound 17a] ... 86
3) COc1ccc(CN2C[C@]3(CC[C@@]4(C)[C@@H](CC[C@@H]5[C@@H]4CC[C@]4(C)C(=O)CC[C@@H]54)C3)OC2=O)cc1 [Compound 17c] ... 84
4) C[C@]12CC[C@@]3(C[C@@H]1CC[C@@H]1[C@@H]2CC[C@]2(C)C(=O)CC[C@@H]12)CN(CCO)C(=O)O3 ... 9
5) Cc1cccc(S(=O)(=O)CCN2C[C@]3(CC[C@@]4(C)[C@@H](CC[C@@H]5[C@@H]4CC[C@]4(C)C(=O)CC[C@@H]54)C3)OC2=O)c1 [Compound 23b] ... 52
6) C[C@]12CC[C@@]3(C[C@@H]1CC[C@@H]1[C@@H]2CC[C@]2(C)C(=O)CC[C@@H]12)CN(Cc1ccc(C(F)(F)F)nc1)C(=O)O3 [Compound 17e] ... 65
